- Target: UniProtKB P0C6E9
- Sequence (P0C6E9 25-781): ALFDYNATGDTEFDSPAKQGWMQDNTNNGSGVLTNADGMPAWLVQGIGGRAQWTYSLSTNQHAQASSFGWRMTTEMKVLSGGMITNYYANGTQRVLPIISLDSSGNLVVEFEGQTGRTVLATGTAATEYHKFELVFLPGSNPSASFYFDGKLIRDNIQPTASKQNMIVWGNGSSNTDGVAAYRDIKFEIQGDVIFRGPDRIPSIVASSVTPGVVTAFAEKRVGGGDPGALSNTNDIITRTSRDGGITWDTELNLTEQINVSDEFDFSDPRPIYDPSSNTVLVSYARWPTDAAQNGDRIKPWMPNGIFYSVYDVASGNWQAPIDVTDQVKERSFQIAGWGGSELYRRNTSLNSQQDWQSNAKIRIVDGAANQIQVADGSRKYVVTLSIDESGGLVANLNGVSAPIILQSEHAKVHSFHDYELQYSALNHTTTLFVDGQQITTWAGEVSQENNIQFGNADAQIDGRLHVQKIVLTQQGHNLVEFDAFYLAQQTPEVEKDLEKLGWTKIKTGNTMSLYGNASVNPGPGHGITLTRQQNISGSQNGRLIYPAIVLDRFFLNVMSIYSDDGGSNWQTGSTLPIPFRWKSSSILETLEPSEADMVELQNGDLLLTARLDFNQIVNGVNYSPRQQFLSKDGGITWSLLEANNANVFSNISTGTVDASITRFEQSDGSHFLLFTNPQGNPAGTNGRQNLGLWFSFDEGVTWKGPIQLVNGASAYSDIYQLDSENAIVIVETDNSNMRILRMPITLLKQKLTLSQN
Listed compounds paired with reported Ki

Compound	Target	Reported result
CC(=O)N[C@H]1[C@H](O)CN(CC(=O)O)C[C@@H]1O	UniProtKB P0C6E9	> 2000 µM

Next compound, please.
Problem: What value of Ki on UniProtKB P0C6E9 does CC(=O)N[C@H]1[C@H](O)CN(C(Cc2ccccc2)C(=O)O)C[C@@H]1O (relative stereo) have?
Solution: 1500 µM

* * *

Listed compounds paired with reported Ki
- Target: Clostridium perfringens sialidase
- Run conditions: Table 1; pH 5.5, 30° C.; competitive inhibition fit
Give the value, in units of µM, as a plain number.

Compound	Readout type	Readout unit	Reported result
CC(=O)N[C@H]1[C@H](O)CN(CC(=O)O)C[C@@H]1O	Ki	µM	400

Problem: Data request, read-out Ki, for CC(=O)N[C@H]1[C@H](O)CN(C(Cc2ccccc2)C(=O)O)C[C@@H]1O (relative stereo)
Solution: 500
